System: 324938-238-R-J1-PDC complex spheroid growth, % test/control;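 further: spheroids exposed to agents for seven days before viability read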
Assay: Anticancer human tumor 324938-238-R-J1-PDC patient-derived bladder carcinoma cell line growth inhibition [AhR]
Conditions: second compound 10 µM; first compound 1 µM; active compounds read low
Sorting guide: entries reporting viability, T/C beneath 60% go in the T pile, the rest go in the F pile.

Before answering, review these 7 worked examples.
Nc1ncn(C2CC(O)C(CO)O2)c(=O)n1 (stereo not drawn) + CC(CO)NC(=O)c1cc(-c2ccc(Cl)cc2)nn(-c2cnn(C)c2)c1=O    T
CC(C)c1c(-c2ccccc2)nc2c(C#N)c[nH]n2c1=O + Cc1ccccc1N=Nc1ccc(NC(=O)c2ccnn2C)c(C)c1    F
Nc1ccccc1NC(=O)c1ccc(CNC(=O)OCc2cccnc2)cc1 + Cc1cncc(-c2nc(NCCc3c[nH]c4ccccc34)c3ncn(C(C)C)c3n2)c1    T
COc1cc(Nc2ncc3c(n2)-c2ccc(Cl)cc2C(c2c(F)cccc2OC)=NC3)ccc1C(=O)O + CC(CO)NC(=O)c1cc(-c2ccc(Cl)cc2)nn(-c2cnn(C)c2)c1=O    T
COc1cc(Nc2ncc3c(n2)-c2ccc(Cl)cc2C(c2c(F)cccc2OC)=NC3)ccc1C(=O)O + Cc1ccccc1N=Nc1ccc(NC(=O)c2ccnn2C)c(C)c1    T
COc1ccc([C@@H](O)c2cc(-c3ncnc4cc(N5CCOCC5)ccc34)c(F)cc2Cl)nn1 + Cc1ccccc1N=Nc1ccc(NC(=O)c2ccnn2C)c(C)c1    F
COc1cccc2c1C(=O)c1c(O)c3c(c(O)c1C2=O)CC(O)(C(=O)CO)CC3OC1CC(N)C(O)C(C)O1 (stereo not drawn) + CC(CO)NC(=O)c1cc(-c2ccc(Cl)cc2)nn(-c2cnn(C)c2)c1=O    T

Now consider a different molecule.
Req: Item Nc1ccn(C2OC(CO)C(O)C2(F)F)c(=O)n1 (stereo not drawn) + Cc1cncc(-c2nc(NCCc3c[nH]c4ccccc34)c3ncn(C(C)C)c3n2)c1 : viability, T/C beneath 60%, strictly?
Resp: T

This collection of values is drawn from PubChem BioAssay AID1918995.
